System tested: human recombinant dopamine D2L receptor (Homo sapiens)
Construct: expressed in transfected cells; host or cells: CHO
Sequence (P14416 whole entry): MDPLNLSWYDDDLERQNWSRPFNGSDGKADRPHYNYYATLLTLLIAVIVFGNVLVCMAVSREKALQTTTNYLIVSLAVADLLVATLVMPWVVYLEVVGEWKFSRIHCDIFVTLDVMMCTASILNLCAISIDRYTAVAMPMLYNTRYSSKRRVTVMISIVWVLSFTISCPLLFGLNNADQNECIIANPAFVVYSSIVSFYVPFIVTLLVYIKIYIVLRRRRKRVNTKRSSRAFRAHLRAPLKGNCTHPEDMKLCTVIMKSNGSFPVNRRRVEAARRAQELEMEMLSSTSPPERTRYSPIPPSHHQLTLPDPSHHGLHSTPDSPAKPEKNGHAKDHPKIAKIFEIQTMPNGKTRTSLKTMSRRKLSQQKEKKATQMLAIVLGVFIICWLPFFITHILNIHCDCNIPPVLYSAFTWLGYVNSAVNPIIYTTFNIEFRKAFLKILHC
Experimental protocol: Dopamine D2L radioligand binding ([3H]Spiperone)
Protocol conditions: read-out: Dopamine D2L (1 μM), percent inhibition of specific binding; compound at 1 μM; 0.16 nM [3H]Spiperone
Metric name: inhibition at 1 µM (%)
Reply with just the number (in %).

Consider the compound Cc1ccc2c(c1)c1c(n2-c2cccc(-c3ccc(C)nc3)c2)CCN(C)C1 . State its measured inhibition at 1 µM. 24

Identify inhibition at 1 µM associated with the compound Cc1ccc2c(c1)c1c(n2-c2ccc(-c3cccc4ccccc34)cn2)CCN(C)C1 15

Let me know recorded inhibition at 1 µM for Cc1ccc2c(c1)c1c(n2-c2ccc(-c3cccnc3)cn2)CCN(C)C1 , thanks. 11

Return reported inhibition at 1 µM. Input compound: Cc1ccc2c(c1)c1c(n2-c2cscc2-c2sccc2C)CCN(C)C1 54

Name the recorded inhibition at 1 µM of the item Cc1ccc2c(c1)c1c(n2-c2ccccc2-c2cc3ccccc3s2)CCN(C)C1 in your answer. 10

Retrieve inhibition at 1 µM measured for CNC(=O)c1ccc(-c2ccccc2-n2c3c(c4cc(C)ccc42)CN(C)CC3)cn1 and print it. 10

====

System tested: human recombinant serotonin (5-Hydroxytryptamine) 5-HT7 receptor (Homo sapiens, UniProt P34969)
Construct: expressed in transfected cells; host or cells: CHO
Sequence (P34969 whole entry): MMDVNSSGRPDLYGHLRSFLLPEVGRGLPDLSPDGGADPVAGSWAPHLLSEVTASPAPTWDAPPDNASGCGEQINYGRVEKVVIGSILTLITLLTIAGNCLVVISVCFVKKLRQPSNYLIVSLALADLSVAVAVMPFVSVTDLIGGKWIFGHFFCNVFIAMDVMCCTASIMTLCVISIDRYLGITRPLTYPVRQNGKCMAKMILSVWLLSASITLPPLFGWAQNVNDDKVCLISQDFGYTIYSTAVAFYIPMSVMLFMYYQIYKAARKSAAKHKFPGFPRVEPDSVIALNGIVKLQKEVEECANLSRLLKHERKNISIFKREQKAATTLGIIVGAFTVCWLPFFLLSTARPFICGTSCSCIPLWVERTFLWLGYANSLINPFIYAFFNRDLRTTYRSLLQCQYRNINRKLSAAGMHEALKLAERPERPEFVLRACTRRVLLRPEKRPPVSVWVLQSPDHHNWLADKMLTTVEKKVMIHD
Experimental protocol: Serotonin 5-HT7 radioligand binding ([3H]LSD)
Protocol conditions: compound at 0.1 μM; read-out: Inhibition of ligand binding, Serotonin 5-HT7 (percent inhibition of specific binding)
Measured inhibition at 0.1 µM by item
The reply should contain only the number, in %.

Answered examples (8):
Cc1ccc2c(c1)c1c(n2-c2ccccc2-c2ccc(C)s2)CCN(C)C1 [Compound No. 81] | 72
Cc1ccc2c(c1)c1c(n2-c2cscc2-c2cncc3ccccc23)CCN(C)C1 [Compound 34] | 43
Cc1ccc2c(c1)c1c(n2-c2cscc2-c2ccnn2C)CCN(C)C1 [Compound No. 150] | 88
Cc1ccc2c(c1)c1c(n2-c2cccc(-c3ccnn3C)c2)CCN(C)C1 [Compound No. 66] | 32
Cc1ccc2c(c1)c1c(n2-c2ccccc2)CCN(C)C1 [Compound 1] | 21
Cc1ccc2c(c1)c1c(n2-c2ccccc2-c2ccccc2)CCN(C)C1 [Compound 8] | 65
CC(=O)Nc1ccc(-c2ccccc2-n2c3c(c4cc(C)ccc42)CN(C)CC3)cn1 [Compound No. 83] | 15
Cc1ccc2c(c1)c1c(n2-c2cscc2-c2ccc(F)cc2)CCN(C)C1 [Compound 23] | 98

Below: the item to evaluate.
Provide only the value of recorded inhibition at 0.1 µM for Cc1cc(C)c2c(c1)c1c(n2-c2ccc3ncccc3c2)CCN(C)C1 [Compound 48] 23

====

System tested: human recombinant serotonin (5-Hydroxytryptamine) 5-HT7 receptor (Homo sapiens)
Construct: expressed in transfected cells; host or cells: CHO
Experimental protocol: Serotonin 5-HT7 radioligand binding ([3H]LSD)
Protocol conditions: compound at 0.1 μM; read-out: Inhibition of ligand binding, Serotonin 5-HT7 (percent inhibition of specific binding)
Reported inhibition at 0.1 µM values follow for various compounds
I only need the number, in %, no unit after it.

Consider the worked cases shown below.
Cc1ccc2c(c1)c1c(n2-c2ccccc2-c2ccc(S(N)(=O)=O)cc2)CCN(C)C1 | 36
Cc1cc(C)c2c(c1)c1c(n2-c2cscc2-c2ccncc2)CCN(C)C1 | 11

Read off the recorded inhibition at 0.1 µM for Cc1ccc2c(c1)c1c(n2-c2cnc3ccccc3c2)CCN(C)C1 13

Identify measured inhibition at 0.1 µM associated with CNC(=O)c1cccc(-c2ccc(-n3c4c(c5cc(C)ccc53)CN(C)CC4)nc2)c1 11
